Values from patent US10077261B2

What follows is a record of IC50 for Fatty Acid Synthase Keto-reductase Domain (FASN KR) (Homo sapiens, UniProt P49327).
Answers are plain numbers, in nM.

O=C(C1CC1)N1CC[C@@H](CN2C(=O)C3(CC3)N=C2c2ccc(-c3ccc4cncnc4c3)cc2F)C1 [compound 258]    83.2
O=C(C1CC1)N1CC(CN2C(=O)C3(CC3)N=C2c2ccc(-c3ccc4[nH]ccc4c3)c(F)c2)C1 [compound 440]    214

Could I get IC50 for every one of these entries?
1. Cc1cc(C2=NC3(CC3)C(=O)N2C[C@@H]2CCN(C(=O)C3CC3)C2)ccc1-c1ccc2sc(C)c(C)c2c1 [compound 231]
2. O=C(C1CC1)N1CC[C@@H](CN2C(=O)C3(CC3)N=C2c2ccc(-c3ccc(F)cc3)cc2)C1 [compound 105]

Out:
1. 282
2. 501
